Target under test: T1, protein A (UniProt P38507 37-477)
T1 construct: also called Protein A superantigen
Run description: Heat/Cool phage ELISA: phage-displayed VH, 80 C 10 min then 4 C 10 min, captured on coated protein A; signal as % of untreated sample
# Retained binding to protein A (%) annotations
Give the quantity in %, number only.

Per the records, this binder ( DP47 VH S35D + S30D (other, name in Kabat numbering) VH: QVQLLESGGGLVQPGGSLRLSCAASGFTFDSYAMDWVRQAPGKGLEWVSAISGSGGSTYYADSVKGRFTISRDNSKNTLYLQMNSLRAEDTAVYYCAKSYGAFDYWGQGTLVTVSS ) has Retained binding to protein A (%) equal to 43.5

Per the records, this binder ( DP47 VH T28D + S31D (other, name in Kabat numbering) VH: QVQLLESGGGLVQPGGSLRLSCAASGFDFSDYAMSWVRQAPGKGLEWVSAISGSGGSTYYADSVKGRFTISRDNSKNTLYLQMNSLRAEDTAVYYCAKSYGAFDYWGQGTLVTVSS ) has Retained binding to protein A (%) equal to 44.8

Per the records, this binder ( DP47 VH T28D + Y32D (other, name in Kabat numbering) VH: QVQLLESGGGLVQPGGSLRLSCAASGFDFSSDAMSWVRQAPGKGLEWVSAISGSGGSTYYADSVKGRFTISRDNSKNTLYLQMNSLRAEDTAVYYCAKSYGAFDYWGQGTLVTVSS ) has Retained binding to protein A (%) equal to 64.7

Per the records, this binder ( DP47 VH S35D + S31D (other, name in Kabat numbering) VH: QVQLLESGGGLVQPGGSLRLSCAASGFTFSDYAMDWVRQAPGKGLEWVSAISGSGGSTYYADSVKGRFTISRDNSKNTLYLQMNSLRAEDTAVYYCAKSYGAFDYWGQGTLVTVSS ) has Retained binding to protein A (%) equal to 48.3
